Provide the recorded pKd for the entries that follow.
Value format note: pKd is -log10 of concentration (mol/L); just state the number.

Q: What reported pKd corresponds to NS(=O)(=O)c1cc2c(cc1Cl)NC(c1ccccc1)NC2=O (stereo not shown) [Compound 19, fenquizone] on CA XIV (Homo sapiens, UniProt Q9ULX7)?
A: 5.24

Q: # returns recorded pKd (system: CA XIV (Homo sapiens, UniProt Q9ULX7)) for Cc1cccc(C)c1NC(=O)c1cc(S(N)(=O)=O)c(Cl)cc1O [Compound 14, xipamide]
Sequence (Q9ULX7 16-337): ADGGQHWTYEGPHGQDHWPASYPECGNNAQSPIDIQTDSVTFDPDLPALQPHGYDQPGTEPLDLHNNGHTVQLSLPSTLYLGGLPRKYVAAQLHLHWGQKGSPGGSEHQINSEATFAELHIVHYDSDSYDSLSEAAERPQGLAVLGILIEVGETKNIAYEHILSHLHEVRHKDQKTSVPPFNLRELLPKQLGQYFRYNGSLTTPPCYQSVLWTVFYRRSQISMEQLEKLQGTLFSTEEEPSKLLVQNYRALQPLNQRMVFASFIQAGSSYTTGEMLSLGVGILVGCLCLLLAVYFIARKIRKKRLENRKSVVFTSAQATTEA
A: 4.82

Q: Recorded pKd for NS(=O)(=O)c1cc(Cl)c(Cl)c(S(N)(=O)=O)c1 [Compound 2, Dichlorphenamide] with CA XIV (Homo sapiens, UniProt Q9ULX7), please?
A: 9.04

Q: Please state recorded pKd (tested on CA XIV (Homo sapiens, UniProt Q9ULX7)) of NS(=O)(=O)c1cc2c(cc1C(F)(F)F)NCNS2(=O)=O [Compound 10, hydroflumethiazide]
A: 5.44
